System tested: HLA-B*58:01
Experimental details: IEDB peptide-MHC binding, purified MHC/direct/fluorescence; filed as Kd, often an IC50 or EC50 that approximates it; bounds were set here for any values at or beyond the usual limits of such assays
Condition description: source organism: Marburg virus - Musoke, Kenya, 1980
Readout kind: Kd

Input: Recorded Kd for `YHLGGIEGL` , please?
Output: ≥ 20 µM

----------
System tested: HLA-A*24:02
Experimental details: IEDB peptide-MHC binding, purified MHC/direct/fluorescence; filed as Kd, often an IC50 or EC50 that approximates it; bounds were set here for any values at or beyond the usual limits of such assays
Condition description: source organism: Yersinia pestis
pKd: −log10 of the molar value.
Readout kind: pKd

Input: Recorded pKd for `AMQDPNPEV` , please?
Output: ≤ 4.70
